target: T1, human prostate specific membrane antigen (PSMA) (human, UniProt Q04609 1-750); assay: flow cytometry, direct binding to LNCaP cells (relative cell binding, MFI, against concentration in nM); the table under the plot labels the half-maximal concentration IC50; unit taken from the concentration axis
T1 construct: Endogenous PSMA on the human prostate cancer cell lines LNCaP, 22Rv1, MDA-PCA-2B and VCAP; also called human PSMA
T1 sequence (Q04609 whole entry): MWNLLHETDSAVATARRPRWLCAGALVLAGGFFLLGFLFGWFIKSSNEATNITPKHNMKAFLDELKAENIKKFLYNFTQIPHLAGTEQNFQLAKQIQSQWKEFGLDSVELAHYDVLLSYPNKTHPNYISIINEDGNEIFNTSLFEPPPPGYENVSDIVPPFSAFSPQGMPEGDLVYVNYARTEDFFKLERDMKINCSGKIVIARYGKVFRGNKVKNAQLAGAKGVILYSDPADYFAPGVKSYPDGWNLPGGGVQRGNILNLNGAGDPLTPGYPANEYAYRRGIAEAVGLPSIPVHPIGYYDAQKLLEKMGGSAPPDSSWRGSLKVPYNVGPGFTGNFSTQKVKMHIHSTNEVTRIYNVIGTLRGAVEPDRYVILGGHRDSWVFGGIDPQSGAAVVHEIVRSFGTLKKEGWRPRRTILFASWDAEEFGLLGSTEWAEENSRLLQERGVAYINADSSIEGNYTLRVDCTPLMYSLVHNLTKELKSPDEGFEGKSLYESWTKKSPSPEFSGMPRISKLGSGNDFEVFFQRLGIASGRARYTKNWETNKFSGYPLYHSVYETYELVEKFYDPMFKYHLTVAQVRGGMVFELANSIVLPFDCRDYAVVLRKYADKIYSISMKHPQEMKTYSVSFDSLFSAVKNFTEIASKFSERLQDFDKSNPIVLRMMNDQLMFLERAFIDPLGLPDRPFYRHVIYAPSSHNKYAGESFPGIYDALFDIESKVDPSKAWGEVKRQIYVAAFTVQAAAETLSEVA
Assay Readout: IC50 (nM)
Numbers only, in nM.

# return recorded IC50 for entry P233FR9_H10 PSMA binding FN3 domain (designed binder, His-tagged, expressed in E. coli; also called H10 centyrin; not shown: C-terminal poly-histidine tag) LPAPKNLVVSRVTEDSARLSWTAPDAAFDSFAIGYWEWDDDGEAIVLTVPGSERSYDLTGLKPGTEYPVYIAGVKGGQWSFPLSAIFTT
0.598
